Tested on: Fibroblast
Assay: Multiplex assay against human fibroblast
Type: toxicity, cell-based
Conditions: 24 h, 10 µM, compound concentration 10 uM, replicate 2
Decide using Population Hoechst High Intensity Objects (%): a value greater than or equal to 30% is Met, a smaller one is Not met.

These solved cases illustrate the format of a correct answer.
In plain terms: is recorded Population Hoechst High Intensity Objects (%) at least 30% for CC(C)[C@H](CO)Nc1nc(Nc2cccc(Cl)c2)c2ncn(C(C)C)c2n1 ?
Not met

Is it the case that N#CCNC(=O)c1ccc(-c2ccnc(Nc3ccc(N4CCOCC4)cc3)n2)cc1 has Population Hoechst High Intensity Objects (%) reaching or exceeding 30%?
Not met

Confirm if Population Hoechst High Intensity Objects (%) reported for the molecule CCCCCNC(=N)N/N=C/c1c[nH]c2ccc(OC)cc12.O=C(O)/C=C\C(=O)O [TEGASEROD MALEATE] is 30% or above.
Met

hey, is Population Hoechst High Intensity Objects (%) for this one >= 30%? CC[C@@]1(O)C(=O)OCc2c1cc1n(c2=O)Cc2cc3ccccc3nc2-1
Met

Query molecule follows.
Answer whether Population Hoechst High Intensity Objects (%) of CCOC(=O)CCNc1cc(N2CCc3ccccc3CC2)nc(-c2ccccn2)n1 is greater than or equal to 30%.
Met
